Values compiled from paper PMC10094171.

tested on: hFOBs cells; test: 2D MTT cell viability assay, non-cancerous human foetal osteoblasts; format: cell-based; details: hFOBs (healthy cells), 72 h, listed as cisplatin
ASSAY METRIC: IC50

Value of measured IC50 for the entry N.N.[Cl][Pt][Cl] [Cisplatin, cis-[(NH3)2PtCl2], reference compound] : 4.1 µM

---

test system: hFOBs cells; experiment: 2D MTT cell viability assay, non-cancerous human foetal osteoblasts; assay type: cell-based; conditions: hFOBs (healthy cells), 72 h
ASSAY METRIC: IC50
The number alone won't do; follow it with the unit.

Item N.N.[Cl][Pt][Cl] [Cisplatin, cis-[(NH3)2PtCl2], reference compound] was tested on hFOBs cells; the reported IC50 is 4.11 µM
